target or system: CDK2/Cyclin A2 (Homo sapiens) (UniProt P24941+P20248)
test summary: Inhibition of recombinant human N-terminal GST-tagged CDK2 (M1 to L298 residues)/Cyclin A2 (M1 to L432 residues) expressed in baculovirus infected sf9 cells at 1 uM using Histone H1 as substrate by filter binding assay
Active and inactive are the calls of the source. No cut-off for these calls is given here.
Classes used: active, inactive

molecule	classification
O=C1Nc2ccccc2/C1=C1/Nc2ccccc2/C1=N\OCC(O)CO (centres undefined)	active
Cc1ccc2c(c1)NC(=O)/C2=C1\Nc2ccccc2\C1=N/O	active
CN1CCN(CCO/N=C2/C(=C3/C(=O)Nc4ccccc43)Nc3ccccc32)CC1	inactive
O=C1Nc2cc(Br)ccc2/C1=C1/Nc2ccccc2/C1=N\O	active

====

Measured solubility, listed per entry.
test summary: Solubility of the compound in water by spectrophotometric method
Type: physicochemical
value type: solubility

structure smiles string	value reported
O=C1Nc2ccccc2/C1=C1/Nc2ccc([N+](=O)[O-])cc2C1=O	< 0.0001 mg/mL
CN1CCN(CCO/N=C2/C(=C3/C(=O)Nc4ccccc43)Nc3ccccc32)CC1.Cl	> 25 mg/mL
COc1ccc2c(c1)/C(=C1/Nc3ccccc3/C1=N\OCCN1CCN(C)CC1)C(=O)N2.Cl	> 25 mg/mL

====

// IC50 lookup, one value per entry
target or system: Glycogen synthase kinase-3 beta (Homo sapiens)
Sequence (P49841 whole entry): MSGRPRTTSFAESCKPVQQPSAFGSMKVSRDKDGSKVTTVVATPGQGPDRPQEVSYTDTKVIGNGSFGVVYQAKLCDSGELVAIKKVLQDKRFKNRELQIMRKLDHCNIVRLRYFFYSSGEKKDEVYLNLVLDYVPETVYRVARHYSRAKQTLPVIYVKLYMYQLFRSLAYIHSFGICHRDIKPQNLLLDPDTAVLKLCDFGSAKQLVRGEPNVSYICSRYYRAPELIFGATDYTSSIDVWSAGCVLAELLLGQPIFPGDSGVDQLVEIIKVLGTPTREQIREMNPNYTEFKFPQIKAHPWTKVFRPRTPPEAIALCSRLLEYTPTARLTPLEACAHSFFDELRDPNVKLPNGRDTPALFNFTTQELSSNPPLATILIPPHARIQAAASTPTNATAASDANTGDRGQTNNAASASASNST
test summary: Inhibition of recombinant GSK3beta (unknown origin) after 10 mins in presence of [gamma32P]ATP by beta counting method
value type: IC50

structure smiles string	value type	value reported
COc1ccc2c(c1)/C(=C1\Nc3ccccc3\C1=N/OCCO[C@@H]1O[C@H](CO)[C@@H](O)[C@H](O)[C@H]1O)C(=O)N2	IC50	100 nM
Cc1ccc2c(c1)/C(=C1/Nc3ccccc3/C1=N\OCCO[C@@H]1O[C@H](CO)[C@@H](O)[C@H](O)[C@H]1O)C(=O)N2	IC50	290 nM
COc1ccc2c(c1)/C(=C1/Nc3ccccc3/C1=N\O)C(=O)N2	IC50	90 nM
